From: the supplement of paper PMC11451515

# System: SEM cells
# assay comment: cell viability relative to DMSO control; higher = less cytotoxic
# test parameters: RPMI 5 mM glucose + 10% FBS; 48 h; 1.71 µM
Reported values of cell viability for individual entries
Report the value in % with no unit label.

Examples with their reported cell viability follow.
>  <compound>
NC(=O)[C@@H](CCC(F)(F)F)N(Cc1ccc(-c2ncon2)cc1F)[S+](=O)([O-])c1ccc(Cl)cc1

>  <target or system>
SEM cells

>  <unit abbreviation>
%

>  <cell viability>
81.9

$$$$
>  <compound>
CC1CCN(c2cc(N3CCN(C)CC3)ccc2NC(=O)c2cc(C#N)c[nH]2)CC1

>  <target or system>
SEM cells

>  <unit abbreviation>
%

>  <cell viability>
129

$$$$
>  <compound>
O=C1C(CCC(O)c2ccc(F)cc2)C(c2ccc(O)cc2)N1c1ccc(F)cc1 (centres undefined)

>  <target or system>
SEM cells

>  <unit abbreviation>
%

>  <cell viability>
97.1

$$$$
>  <compound>
CNCCN(C)Cc1c[nH]nc1-c1ccc(O[C@H]2C[C@H](OCCC3CCOCC3)C2)cc1

>  <target or system>
SEM cells

>  <unit abbreviation>
%

>  <cell viability>
130

$$$$

Prompt: Request: cell viability, test system SEM cells, entry `O=C(N[C@H]1CN2CCC1CC2)c1ccc(Cl)cc1`
Completion: 99.5

Prompt: Request: cell viability, test system SEM cells, entry `CCNC(=O)c1noc(-c2cc(C(C)C)c(O)cc2O)c1-c1ccc(CN2CCOCC2)cc1`
Completion: 19.6

Prompt: Request: cell viability, test system SEM cells, entry `O=C(O)CCc1ccc(NCc2cccc(Oc3ccccc3)c2)cc1`
Completion: 118

Prompt: Request: cell viability, test system SEM cells, entry `CCC[S+](=O)([O-])Nc1ccc(F)c(C(=O)c2c[nH]c3ncc(-c4ccc(Cl)cc4)cc23)c1F`
Completion: 121

Prompt: Request: cell viability, test system SEM cells, entry `C[C@]12CCC(=O)C(O)=C1CC[C@@H]1[C@@H]2CC[C@]2(C)C(=O)CC[C@@H]12`
Completion: 111
